Hello, the source for this data is ChEMBL document CHEMBL1154034, in case you need it.

Task for the reader: assign each of the following compounds its reported half-life.
test: Effective half life in Sprague-Dawley rat at 2 mg/kg, iv and 5 mg/kg, po; type: ADME, organism-based; conditions: in vivo
Return type: number; implicit unit min.

Look at this compound and give its reported half-life. CCCCCOC(=O)N1CCN(C(=O)[C@H](CCC(=O)O)NC(=O)c2cc(N3CCC(COC)CC3)cc(-c3ccccc3)n2)CC1
42

Look at this compound and give its reported half-life. CCCCOC(=O)N1CCN(C(=O)[C@H](CCC(=O)O)NC(=O)c2cc(OCCOC)cc(-c3ccccc3)n2)CC1
24

Look at this compound and give its reported half-life. CCCCCCOC(=O)N1CCN(C(=O)[C@H](CCC(=O)O)NC(=O)c2cccc(-c3ccccc3)n2)CC1
42

Look at this compound and give its reported half-life. CCCCCOC(=O)N1CCN(C(=O)[C@H](CCC(=O)O)NC(=O)c2cccc(-c3ccccc3)n2)CC1
78

###

target: P2Y purinoceptor 12 (Homo sapiens); experiment: Binding affinity to human recombinant P2Y12 receptor expressed in CHO cells
measurement type: pKi
Scale: negative log10 of molar concentration, which is what pKi denotes.

Look at this compound and give its reported pKi. CCOC(=O)N1CCN(C(=O)[C@H](CCC(=O)O)NC(=O)c2cc(NCCN(C)C)cc(-c3ccccc3)n2)CC1
6.57

Look at this compound and give its reported pKi. CCOC(=O)N1CCN(C(=O)[C@H](CCC(=O)O)NC(=O)c2cc(OC3CCNCC3)cc(-c3ccccc3)n2)CC1
7.17

Look at this compound and give its reported pKi. CCCCCOC(=O)N1CCN(C(=O)[C@H](CCC(=O)O)NC(=O)c2cccc(-c3ccccc3)n2)CC1
7.96

Look at this compound and give its reported pKi. CCCCCCOC(=O)N1CCN(C(=O)[C@H](CCC(=O)O)NC(=O)c2cc(N3CCC(O)CC3)cc(-c3ccccc3)n2)CC1
7.62

###

assay: Volume of distribution at steady state in Sprague-Dawley rat at 2 mg/kg, iv and 5 mg/kg, po; format: ADME, organism-based; conditions: in vivo, read-out: Vdss
Task for the reader: assign each of the following molecules its reported log10 Vd.
// units: L/kg (pre-log); metric: Vd; scale: log10

Look at this molecule and give its reported log10 Vd. CCCCCOC(=O)N1CCN(C(=O)[C@H](CCC(=O)O)NC(=O)c2cc(N3CCC(CN)CC3)cc(-c3ccccc3)n2)CC1
0.41

Look at this molecule and give its reported log10 Vd. CCCCCOC(=O)N1CCN(C(=O)[C@H](CCC(=O)O)NC(=O)c2cc(N(C)CCS(C)(=O)=O)cc(-c3ccccc3)n2)CC1
0.11

Look at this molecule and give its reported log10 Vd. CCCCCOC(=O)N1CCN(C(=O)[C@H](CCC(=O)O)NC(=O)c2cc(N3CCC(COC)CC3)cc(-c3ccccc3)n2)CC1
-0.52

Look at this molecule and give its reported log10 Vd. CCCCOC(=O)N1CCN(C(=O)[C@H](CCC(=O)O)NC(=O)c2cc(OCCOC)cc(-c3ccccc3)n2)CC1
0.18

Look at this molecule and give its reported log10 Vd. CCCCCOC(=O)N1CCN(C(=O)[C@H](CCC(=O)O)NC(=O)c2cccc(-c3ccccc3)n2)CC1
1.01

Look at this molecule and give its reported log10 Vd. CCCCCOC(=O)N1CCN(C(=O)[C@H](CCC(=O)O)NC(=O)c2cc(OC3CCNCC3)cc(-c3ccccc3)n2)CC1
0.49

Look at this molecule and give its reported log10 Vd. CCCCCCOC(=O)N1CCN(C(=O)[C@H](CCC(=O)O)NC(=O)c2cccc(-c3ccccc3)n2)CC1
0.23

###

assay: Clearance in Sprague-Dawley rat at 2 mg/kg, iv and 5 mg/kg, po; type: ADME, organism-based; details: in vivo
measurement type: clearance (mL/min/kg)
Return type: number; implicit unit mL/min/kg.

Look at this compound and give its reported clearance. CCCCOC(=O)N1CCN(C(=O)[C@H](CCC(=O)O)NC(=O)c2cc(OCCOC)cc(-c3ccccc3)n2)CC1
49

Look at this compound and give its reported clearance. CCCCCCOC(=O)N1CCN(C(=O)[C@H](CCC(=O)O)NC(=O)c2cccc(-c3ccccc3)n2)CC1
29

Look at this compound and give its reported clearance. CCCCCOC(=O)N1CCN(C(=O)[C@H](CCC(=O)O)NC(=O)c2cc(N(C)CCS(C)(=O)=O)cc(-c3ccccc3)n2)CC1
69

Look at this compound and give its reported clearance. CCCCCOC(=O)N1CCN(C(=O)[C@H](CCC(=O)O)NC(=O)c2cc(OC3CCNCC3)cc(-c3ccccc3)n2)CC1
133

Look at this compound and give its reported clearance. CCCCCOC(=O)N1CCN(C(=O)[C@H](CCC(=O)O)NC(=O)c2cc(N3CCC(CN)CC3)cc(-c3ccccc3)n2)CC1
70

Look at this compound and give its reported clearance. CCCCCOC(=O)N1CCN(C(=O)[C@H](CCC(=O)O)NC(=O)c2cccc(-c3ccccc3)n2)CC1
89

Look at this compound and give its reported clearance. CCCCCOC(=O)N1CCN(C(=O)[C@H](CCC(=O)O)NC(=O)c2cc(N3CCC(COC)CC3)cc(-c3ccccc3)n2)CC1
3

###

Task for the reader: assign each of the following molecules its reported Ki.
molecular target: P2Y purinoceptor 12 (Homo sapiens, UniProt Q9H244); assay: Binding affinity to human recombinant P2Y12 receptor expressed in CHO cells
Sequence (Q9H244 whole entry): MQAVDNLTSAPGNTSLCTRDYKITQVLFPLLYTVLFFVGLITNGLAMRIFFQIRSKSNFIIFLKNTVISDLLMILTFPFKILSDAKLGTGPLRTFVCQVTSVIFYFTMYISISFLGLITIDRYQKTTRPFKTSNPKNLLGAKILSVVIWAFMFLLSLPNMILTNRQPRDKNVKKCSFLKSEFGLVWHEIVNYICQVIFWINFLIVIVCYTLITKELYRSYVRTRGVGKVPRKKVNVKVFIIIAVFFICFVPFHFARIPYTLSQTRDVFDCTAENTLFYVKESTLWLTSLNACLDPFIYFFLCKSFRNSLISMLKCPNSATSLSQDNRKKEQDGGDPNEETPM
Return type: number; implicit unit nM.

What is its Ki for P2Y purinoceptor 12 (Homo sapiens, UniProt Q9H244)? Entry: C=CCOC(=O)N1CCN(C(=O)[C@H](CCC(=O)O)NC(=O)c2cc(OCCOC)cc(-c3ccccc3)n2)CC1
95

What is its Ki for P2Y purinoceptor 12 (Homo sapiens, UniProt Q9H244)? Entry: CCCCOc1cc(C(=O)N[C@@H](CCC(=O)O)C(=O)N2CCN(C(=O)OC(C)C)CC2)nc(-c2ccccc2)c1
146

What is its Ki for P2Y purinoceptor 12 (Homo sapiens, UniProt Q9H244)? Entry: C=CCOC(=O)N1CCN(C(=O)[C@H](CCC(=O)O)NC(=O)c2cc(OCCCC)cc(-c3ccccc3)n2)CC1
99

What is its Ki for P2Y purinoceptor 12 (Homo sapiens, UniProt Q9H244)? Entry: CCOC(=O)N1CCN(C(=O)[C@H](CCC(=O)O)NC(=O)c2cc(N(CC)CC)cc(-c3ccccc3)n2)CC1
23

What is its Ki for P2Y purinoceptor 12 (Homo sapiens, UniProt Q9H244)? Entry: CCCCOC(=O)N1CCN(C(=O)[C@H](CCC(=O)O)NC(=O)c2cc(OCCOC)cc(-c3ccccc3)n2)CC1
18

What is its Ki for P2Y purinoceptor 12 (Homo sapiens, UniProt Q9H244)? Entry: CCOC(=O)N1CCN(C(=O)[C@H](CCC(=O)O)NC(=O)c2cc(N3CCN(CCN(C)C)CC3)cc(-c3ccccc3)n2)CC1
47

What is its Ki for P2Y purinoceptor 12 (Homo sapiens, UniProt Q9H244)? Entry: NCC1CCN(c2cc(C(=O)N[C@@H](CCC(=O)O)C(=O)N3CCN(C(=O)OCCC4CCCC4)CC3)nc(-c3ccccc3)c2)CC1
69

###

target: P2Y purinoceptor 12 (Homo sapiens); test: Binding affinity to human recombinant P2Y12 receptor expressed in CHO cells
Task for the reader: assign each of the following compounds its reported Ki.
Return type: number; implicit unit nM.

Look at this compound and give its reported Ki. CCCCOC(=O)N1CCN(C(=O)[C@H](CCC(=O)O)NC(=O)c2cc(OCCCC)cc(-c3ccccc3)n2)CC1
36

Look at this compound and give its reported Ki. CCOC(=O)N1CCN(C(=O)[C@H](CCC(=O)O)NC(=O)c2cc(NCc3ccccc3)cc(-c3ccccc3)n2)CC1
26

Look at this compound and give its reported Ki. CCOC(=O)N1CCN(C(=O)[C@H](CCC(=O)O)NC(=O)c2cc(OCCO)cc(-c3ccccc3)n2)CC1
157

Look at this compound and give its reported Ki. CCCCCOC(=O)N1CCN(C(=O)[C@H](CCC(=O)O)NC(=O)c2cc(N3CCC(O)CC3)cc(-c3ccccc3)n2)CC1
11

Look at this compound and give its reported Ki. CCOC(=O)N1CCN(C(=O)[C@H](CCC(=O)O)NC(=O)c2cc(N3CCC(N4CCCC4)CC3)cc(-c3ccccc3)n2)CC1
34

Look at this compound and give its reported Ki. CCCOC(=O)N1CCN(C(=O)[C@H](CCC(=O)O)NC(=O)c2cccc(-c3ccccc3)n2)CC1
27

Look at this compound and give its reported Ki. COCCOc1cc(C(=O)N[C@@H](CCC(=O)O)C(=O)N2CCN(C(=O)OC(C)C)CC2)nc(-c2ccccc2)c1
189

Look at this compound and give its reported Ki. CCCCOc1cc(C(=O)N[C@@H](CCC(=O)O)C(=O)N2CCN(C(=O)OCC)CC2)nc(-c2ccccc2)c1
39

Look at this compound and give its reported Ki. CCCCCCOC(=O)N1CCN(C(=O)[C@H](CCC(=O)O)NC(=O)c2cccc(-c3ccccc3)n2)CC1
43

Look at this compound and give its reported Ki. CCOC(=O)N1CCN(C(=O)[C@H](CCC(=O)O)NC(=O)c2cc(OCCCO)cc(-c3ccccc3)n2)CC1
68

Look at this compound and give its reported Ki. CCOC(=O)N1CCN(C(=O)[C@H](CCC(=O)O)NC(=O)c2cc(OCc3ccccc3)cc(-c3ccccc3)n2)CC1
28

Look at this compound and give its reported Ki. CC(C)OC(=O)N1CCN(C(=O)[C@H](CCC(=O)O)NC(=O)c2cc(OC3CCNCC3)cc(-c3ccccc3)n2)CC1
157

Look at this compound and give its reported Ki. C=CCOC(=O)N1CCN(C(=O)[C@H](CCC(=O)O)NC(=O)c2cc(OC3CCNCC3)cc(-c3ccccc3)n2)CC1
93
